Molecular target: RAC-alpha serine/threonine-protein kinase (Homo sapiens)
Sequence (P31749 whole entry): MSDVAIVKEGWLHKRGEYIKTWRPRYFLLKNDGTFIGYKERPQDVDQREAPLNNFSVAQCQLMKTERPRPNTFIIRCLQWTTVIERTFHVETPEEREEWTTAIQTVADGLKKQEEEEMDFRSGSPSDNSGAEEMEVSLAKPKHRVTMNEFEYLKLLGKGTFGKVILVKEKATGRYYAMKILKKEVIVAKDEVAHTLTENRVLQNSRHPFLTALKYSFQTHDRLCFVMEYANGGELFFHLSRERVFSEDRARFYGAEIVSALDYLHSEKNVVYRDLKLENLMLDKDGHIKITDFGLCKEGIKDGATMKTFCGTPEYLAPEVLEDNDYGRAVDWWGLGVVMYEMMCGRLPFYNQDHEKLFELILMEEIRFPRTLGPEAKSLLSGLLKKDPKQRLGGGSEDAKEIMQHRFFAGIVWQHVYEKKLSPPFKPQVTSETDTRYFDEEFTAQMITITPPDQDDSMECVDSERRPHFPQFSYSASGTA
Assay: Inhibition of Akt1 phosphorylation by HTRF assay
pIC50: −log10 of the molar value.
Each entry below lists one item and its recorded pIC50 value.
readoutName: pIC50

* C[C@@H]1CN(c2ncc3cc(-c4ccccc4)c(-c4ccc(CN5CCC(c6nnc(-c7ccccn7)[nH]6)CC5)cc4)nc3n2)C[C@H](C)N1 | 7.35
* FC1(F)CCN(c2ncc3cc(-c4ccccc4)c(-c4ccc(CN5CCC(c6nnc(-c7ccccn7)[nH]6)CC5)cc4)nc3n2)C1 | 7.70
* CN1CCN(c2nccc3cc(-c4ccccc4)c(-c4ccc(CN5CCC(c6nnc(-c7ccccn7)[nH]6)CC5)cc4)nc23)CC1 | 6.14
* CN(C)C1CCN(c2ncc3cc(-c4ccccc4)c(-c4ccc(CN5CCC(c6nnc(-c7ccccn7)[nH]6)CC5)cc4)nc3n2)CC1 | 8.00
* C[C@@H]1CN(c2ncc3cc(-c4ccccc4)c(-c4ccc(CN5CCC(c6nnc(-c7ccccn7)[nH]6)CC5)cc4)nc3n2)C[C@H](C)O1 | 7.55
* c1ccc(-c2cc3cnc(-n4ccnc4)nc3nc2-c2ccc(CN3CCC(c4nnc(-c5ccccn5)[nH]4)CC3)cc2)cc1 | 8.30
* CN1CCN(c2ncc3cc(-c4ccccc4)c(-c4ccc(CN5CCC(c6nnc(-c7ccccn7)[nH]6)CC5)cc4)nc3n2)CC1 | 8.05
* C[C@@H]1CN(c2ncc3cc(-c4ccccc4)c(-c4ccc(CN5CCC(c6nnc(-c7ccccn7)[nH]6)CC5)cc4)nc3n2)CCN1 | 8.10
* CN1CCN(c2nccc3nc(-c4ccc(CN5CCC(c6nnc(-c7ccccn7)[nH]6)CC5)cc4)c(-c4ccccc4)cc23)CC1 | 6.55
* CN(C)C(=O)N1CCN(c2ncc3cc(-c4ccccc4)c(-c4ccc(CN5CCC(c6nnc(-c7ccccn7)[nH]6)CC5)cc4)nc3n2)CC1 | 7.74
* c1ccc(-c2cc3cnc(N4CCn5cnnc5C4)nc3nc2-c2ccc(CN3CCC(c4nnc(-c5ccccn5)[nH]4)CC3)cc2)cc1 | 7.72
* C[C@H]1CN(c2ncc3cc(-c4ccccc4)c(-c4ccc(CN5CCC(c6nnc(-c7ccccn7)[nH]6)CC5)cc4)nc3n2)CCN1 | 7.77
* O=S1(=O)CCN(c2ncc3cc(-c4ccccc4)c(-c4ccc(CN5CCC(c6nnc(-c7ccccn7)[nH]6)CC5)cc4)nc3n2)CC1 | 7.42
* CN(C)CCNc1ncc2cc(-c3ccccc3)c(-c3ccc(CN4CCC(c5nnc(-c6ccccn6)[nH]5)CC4)cc3)nc2n1 | 7.10
